# Tested on: ACHN renal
# Test protocol: NCI tumour cell line growth inhibition, 48 h; in the data active = GI50 below about 0.43 µM; inactive = the rest
Respond using exactly one of the listed classes: true (active), false (inactive)

In: Look up the recorded call for O=c1/c(=C\c2ccc(Br)cc2)sc2n1C(c1ccc(Br)cc1)C1=C(N=2)c2ccc3ccccc3c2OCC1 (centres undefined) in this test.
Out: false

In: Look up the recorded call for `O=C(CN1CCN(C(=O)c2ccco2)CC1)Nc1ccc(Cl)cc1C(=O)c1ccccc1Cl` in this test.
Out: false

In: Look up the recorded call for Nc1n[nH]c2ccc([C@@H]3Nc4ccc5cn[nH]c5c4[C@H]4C5CCC(C5)[C@@H]34)cc12 (some centres undefined) in this test.
Out: false

In: Look up the recorded call for `COc1cc2c(cc1OCCCN1CCN(C(=S)SCCC(C#N)(c3ccccc3)c3ccccc3)CC1)N=C[C@@H]1CCCN1C2=O` in this test.
Out: false

In: Look up the recorded call for O=C(NN1C(=O)CSC1c1c(Cl)cccc1Cl)C(O)c1ccccc1 (centres undefined) in this test.
Out: false
